test system: L929 (mouse fibroblast); experiment: Cytotoxicity assay (MTT), L929; assay type: cell-based; conditions: Mus musculus, L929, 120 h, 5 days of incubation, MTT; NC: no cytotoxic effect, or only weak inhibition of proliferation; read-out: IC50 L929
pIC50: −log10 of the molar value.
REPORTED PROPERTY: pIC50

Take a look at these entries with their results.
C=C1[C@@H](C)[C@H]2[C@H](Cc3ccccc3)N(C)C(=O)[C@]23OC(=O)/C=C/[C@H](O)CCC[C@@H](C)C/C=C/[C@H]3[C@@H]1O < 5.00
C=C1[C@@H](C)[C@H]2[C@H](Cc3ccccc3)NC(=O)[C@]23OC(=O)/C=C/[C@H](O)CCC[C@@H](C)C/C=C/[C@H]3[C@@H]1O 5.89
C=C1[C@@H](C)[C@H]2[C@H](Cc3ccccc3)NC(=O)[C@]23OC(=O)/C=C/[C@H](O)CCC[C@@H](C)C/C=C/[C@H]3[C@@H]1OC(C)=O < 5.00
C=C1[C@@H](C)[C@H]2[C@H](Cc3ccccc3)N(C(C)=O)C(=O)[C@]23OC(=O)/C=C/[C@H](O)CCC[C@@H](C)C/C=C/[C@H]3[C@@H]1O 5.03 to 5.32

Enquiry: // query pIC50 value for entry C=C1[C@@H](C)[C@H]2[C@H](Cc3ccccc3)NC(=O)[C@]23OC(=O)/C=C/[C@H](OC(C)=O)CCC[C@@H](C)C/C=C/[C@H]3[C@@H]1O
Return: 5.03 to 5.32
